Source listed as ChEMBL document CHEMBL1240454.

Collected Ki values appear next to each entry.
Molecular target: 5-hydroxytryptamine receptor 1A (Homo sapiens)
Write the answer as a number in nM, unit excluded.

// below: answered compounds
COc1ccccc1N1CCN(C[C@H]2CO[C@@](CN3CCCCC3=O)(c3ccccc3)O2)CC1 | 5.25
COc1ccccc1N1CCN(C[C@@H]2CO[C@@](CN3C(=O)CC4(CCCC4)CC3=O)(c3ccccc3)O2)CC1 (relative stereo) | 1.26

Entry COc1ccccc1N1CCN(C[C@@H]2CO[C@@](CN3C(=O)CCC3=O)(c3ccccc3)O2)CC1 (relative stereo) ; Ki = 25.7

Record COc1ccccc1N1CCN(CC2OCC(c3ccccc3)(c3ccccc3)O2)CC1 (centres undefined) . Reported Ki: 22.9

* * *

Organism: Rattus norvegicus
Assay: Selectivity for adrenergic Alpha-1B receptor in Wistar rat spleen over adrenergic alpha1A receptor in Wistar rat prostatic vas deferens
Type: tissue-based
Label 1 when Selectivity ratio >= 0.7; otherwise 0.

Lookup: Quick check, Selectivity ratio >= 0.7? COc1ccccc1N1CCN(C[C@H]2CO[C@@](CN3CCCCCC3=O)(c3ccccc3)O2)CC1 (relative stereo)
Found: 1

* * *

Biological target: 5-hydroxytryptamine receptor 1A (Homo sapiens) (UniProt P08908)
Sequence (P08908 whole entry): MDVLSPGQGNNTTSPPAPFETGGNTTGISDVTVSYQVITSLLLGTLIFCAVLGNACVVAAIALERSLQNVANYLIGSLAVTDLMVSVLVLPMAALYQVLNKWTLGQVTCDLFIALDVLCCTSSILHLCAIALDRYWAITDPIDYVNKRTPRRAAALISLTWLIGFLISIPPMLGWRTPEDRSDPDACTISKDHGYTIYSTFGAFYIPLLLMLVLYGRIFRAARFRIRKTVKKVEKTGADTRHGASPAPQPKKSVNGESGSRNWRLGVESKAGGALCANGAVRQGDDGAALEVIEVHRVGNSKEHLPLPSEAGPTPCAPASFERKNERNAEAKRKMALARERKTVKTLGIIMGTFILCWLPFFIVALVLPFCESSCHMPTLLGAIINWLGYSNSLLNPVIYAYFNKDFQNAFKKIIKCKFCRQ
Details: HeLa
quantityName: pKb
Number only, please.

COc1ccccc1N1CCN(C[C@@H]2CO[C@@](CN3CCCCC3=O)(c3ccccc3)O2)CC1 (relative stereo) | 7.39

# pKb (compound: COc1ccccc1N1CCN(C[C@H]2CO[C@@](CN3CCCCCC3=O)(c3ccccc3)O2)CC1 (relative stereo) ) is 7.25

Sample COc1ccccc1N1CCN(C[C@H]2CO[C@](CN3CCCC3=O)(c3ccccc3)O2)CC1 (relative stereo) ; pKb observed: 7.16

Lab note: measured pKb of COc1ccccc1N1CCN(C[C@H]2CO[C@@](CN3CCCCC3=O)(c3ccccc3)O2)CC1 was 7.38

* * *

Target: Alpha-1D adrenergic receptor (Rattus norvegicus) (UniProt P23944)
Sequence (P23944 whole entry): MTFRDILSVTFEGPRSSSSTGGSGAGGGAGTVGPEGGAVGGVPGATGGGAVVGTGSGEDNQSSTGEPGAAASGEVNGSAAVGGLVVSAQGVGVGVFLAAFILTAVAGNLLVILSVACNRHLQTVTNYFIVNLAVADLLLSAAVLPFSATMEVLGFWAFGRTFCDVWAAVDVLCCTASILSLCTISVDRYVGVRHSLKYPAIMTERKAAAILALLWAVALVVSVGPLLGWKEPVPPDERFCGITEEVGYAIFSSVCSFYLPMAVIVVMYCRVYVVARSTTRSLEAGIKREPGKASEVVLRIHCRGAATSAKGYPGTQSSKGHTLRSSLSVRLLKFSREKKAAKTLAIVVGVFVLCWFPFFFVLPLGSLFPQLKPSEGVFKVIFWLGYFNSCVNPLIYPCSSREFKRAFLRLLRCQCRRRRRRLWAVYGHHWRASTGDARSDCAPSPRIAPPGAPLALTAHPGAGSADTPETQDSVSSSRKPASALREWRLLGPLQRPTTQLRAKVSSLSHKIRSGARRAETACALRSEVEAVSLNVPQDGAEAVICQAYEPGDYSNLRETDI
Test: Antagonist activity at adrenergic Alpha-1D receptor in Wistar rat thoracic aorta assessed as inhibition of (-)-norepinephrine-induced vasocontraction treated 30 mins before (-)norepinephrine challenge
Type: functional, tissue-based
quantityName: pKb
Could you respond with only the numeric value?

COc1ccccc1N1CCN(C[C@@H]2CO[C@@](CN3C(=O)CCCC3=O)(c3ccccc3)O2)CC1 (relative stereo) | 7.57
COc1ccccc1N1CCN(C[C@H]2CO[C@@](CN3C(=O)CCC3=O)(c3ccccc3)O2)CC1 (relative stereo) | 6.42

pKb measured on COc1ccccc1N1CCN(C[C@@H]2CO[C@@](CN3CCCCC3=O)(c3ccccc3)O2)CC1 (relative stereo) = 7.29

* * *

Biological target: 5-hydroxytryptamine receptor 1A (Homo sapiens)
Assay: Agonist activity at human cloned 5HT1A receptor expressed in human HeLa cells assessed as stimulation of [35S]GTPgammaS binding after 20 mins by liquid scintillation counting
Type: functional, cell-based
quantityName: pD2
Just the number, please.

As a guide, the following entries are already answered.
COc1ccccc1N1CCN(C[C@H]2CO[C@@](CN3C(=O)CCC3=O)(c3ccccc3)O2)CC1 (relative stereo) | 7.05
COc1ccccc1N1CCN(C[C@@H]2CO[C@@](CN3C(=O)CC4(CCCC4)CC3=O)(c3ccccc3)O2)CC1 (relative stereo) | 7.98
COc1ccccc1N1CCN(CCN2C(=O)CC3(CCCC3)CC2=O)CC1 | 7.83
COc1ccccc1N1CCN(C[C@@H]2CO[C@](CN3CCCC3=O)(c3ccccc3)O2)CC1 (relative stereo) | 7.14

compound COc1ccccc1N1CCN(C[C@H]2CO[C@@](CN3C(=O)CC4(CCCC4)CC3=O)(c3ccccc3)O2)CC1 (relative stereo) , pD2 observed: 7.8

* * *

// Alpha-1D adrenergic receptor (Homo sapiens) pKi records
Reminder that pKi means the negative base-10 logarithm of the concentration expressed in mol/L.

COc1ccccc1N1CCN(C[C@@H]2CO[C@@](CN3CCCCC3=O)(c3ccccc3)O2)CC1 (relative stereo) | 8.83

Kindly note the recorded pKi for COc1ccccc1N1CCN(C[C@@H]2CO[C@@](CN3C(=O)CCC3=O)(c3ccccc3)O2)CC1 (relative stereo) , which is 7.79

Sample COc1ccccc1N1CCN(C[C@@H]2CO[C@@](CN3C(=O)CC4(CCCC4)CC3=O)(c3ccccc3)O2)CC1 (relative stereo) ; pKi observed: 8.86

Item: COc1ccccc1N1CCN(C[C@H]2CO[C@@](CN3CCCCCC3=O)(c3ccccc3)O2)CC1 (relative stereo) | pKi: 8.39

* * *

Species: Rattus norvegicus
Assay: Selectivity for adrenergic Alpha-1B receptor in Wistar rat spleen over adrenergic alpha1A receptor in Wistar rat prostatic vas deferens
Type: tissue-based
Quick rule for you: Selectivity ratio under 2 gets t, anything else gets f.

Use the examples below as a reference point.
COc1ccccc1N1CCN(C[C@H]2CO[C@](CN3CCCC3=O)(c3ccccc3)O2)CC1 (relative stereo) | t
COc1ccccc1N1CCN(C[C@@H]2CO[C@@](CN3CCCCC3=O)(c3ccccc3)O2)CC1 (relative stereo) | t
COc1ccccc1N1CCN(C[C@@H]2CO[C@@](CN3CCCCCC3=O)(c3ccccc3)O2)CC1 (relative stereo) | t

Lookup: Would you kindly verify if Selectivity ratio of COc1ccccc1N1CCN(C[C@H]2CO[C@@](CN3C(=O)CC4(CCCC4)CC3=O)(c3ccccc3)O2)CC1 (relative stereo) is strictly less than 2?
Found: f

Lookup: Determine whether this compound shows Selectivity ratio lower than 2 (ties excluded): COc1ccccc1N1CCN(C[C@@H]2CO[C@](CN3CCCC3=O)(c3ccccc3)O2)CC1 (relative stereo)
Found: t

Lookup: Identify whether the compound COc1ccccc1N1CCN(C[C@@H]2CO[C@@](CN3C(=O)CC4(CCCC4)CC3=O)(c3ccccc3)O2)CC1 (relative stereo) records Selectivity ratio below 2.
Found: t

Lookup: Is Selectivity ratio of COc1ccccc1N1CCN(C[C@H]2CO[C@@](CN3C(=O)CCC3=O)(c3ccccc3)O2)CC1 (relative stereo) strictly below 2?
Found: f
